- Study target: NEK2 (human)
- Measurement notes: radiometric filter-binding kinase assay, Kinase HotSpot
- Condition summary: compound 0.5 µM; ATP 10 µM
Assay endpoint: residual activity
Report as: number unit

Some solved entries appear below for comparison.
Cn1cnc2cc3c(Nc4cccc(Br)c4)ncnc3cc21 : 103%
Nc1nnc2[nH]c3ccccc3nc1-2 : 99.6%
CN([C@@H](Cc1ccc(OS(=O)(=O)c2cccc3cnccc23)cc1)C(=O)N1CCN(c2ccccc2)CC1)S(=O)(=O)c1cccc2cnccc12 : 87.4%

From here, focus on the item given below.
The compound `CC(C)c1nn(-c2c(Cl)cccc2Cl)c2nc(Cc3ccc(OCCO)cc3)nc(O)c12` , tested on NEK2 (human), showed residual activity of 97.7%

====

Listed here: items and their measured residual activity.
- Study target: CAMK4 (human)
- Measurement notes: radiometric filter-binding kinase assay, Kinase HotSpot
- Condition summary: compound 0.5 µM; ATP 10 µM
Answer with a number only, understood to be in %.

Cn1cnc2cc3c(Nc4cccc(Br)c4)ncnc3cc21 : 98.6
CC(C)[C@H](CO)Nc1nc(Nc2cc(N)cc(Cl)c2)c2ncn(C(C)C)c2n1 : 97.4
O=C(CCCc1ccc(-c2ccccc2F)cc1)Nc1ccc(O)cc1 : 99.6
Cn1sc(=O)n(Cc2ccccc2)c1=O : 93.2
O=C(Nc1cccc(Nc2cc(Nc3cccc(C(F)(F)F)c3)ncn2)c1)C1CC1 : 98.5

For record `CC(C)c1nn(-c2c(Cl)cccc2Cl)c2nc(Cc3ccc(OCCO)cc3)nc(O)c12` the listed residual activity is 102

For record `O=C1NC(=O)C(c2cn(CCCO)c3ncccc23)=C1c1cnccn1` the listed residual activity is 95.6

For record `O=C1Nc2ccccc2/C1=C1\Nc2ccccc2\C1=N/O` the listed residual activity is 97.4

For record `O=C1Cc2c([nH]c3ccc(Br)cc23)-c2ccccc2N1` the listed residual activity is 98.1

For record `Oc1ccc(Nc2nc(-c3ccc(Cl)cc3)cs2)cc1` the listed residual activity is 99.7

For record `Cn1nc2c3c(cccc31)C(=O)c1ccccc1-2` the listed residual activity is 100

For record `O=C1NC(=O)C(c2c[nH]c3ccccc23)=C1c1c[nH]c2ccccc12` the listed residual activity is 100

====

- Study target: CDK7 CCNH MNAT1 (human) (UniProt P50613+P51948+P51946)
- Sequence (P50613 whole entry, looked up): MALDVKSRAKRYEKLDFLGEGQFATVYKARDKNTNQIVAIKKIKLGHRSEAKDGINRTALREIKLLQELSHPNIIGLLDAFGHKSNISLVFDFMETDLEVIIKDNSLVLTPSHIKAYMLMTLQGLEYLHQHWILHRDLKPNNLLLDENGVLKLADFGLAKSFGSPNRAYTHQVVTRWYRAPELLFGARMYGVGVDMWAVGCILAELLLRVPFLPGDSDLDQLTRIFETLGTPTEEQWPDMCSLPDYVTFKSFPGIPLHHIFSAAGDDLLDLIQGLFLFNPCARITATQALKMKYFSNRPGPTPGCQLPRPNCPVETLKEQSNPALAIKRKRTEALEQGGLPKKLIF
- Sequence (P51946 whole entry, looked up): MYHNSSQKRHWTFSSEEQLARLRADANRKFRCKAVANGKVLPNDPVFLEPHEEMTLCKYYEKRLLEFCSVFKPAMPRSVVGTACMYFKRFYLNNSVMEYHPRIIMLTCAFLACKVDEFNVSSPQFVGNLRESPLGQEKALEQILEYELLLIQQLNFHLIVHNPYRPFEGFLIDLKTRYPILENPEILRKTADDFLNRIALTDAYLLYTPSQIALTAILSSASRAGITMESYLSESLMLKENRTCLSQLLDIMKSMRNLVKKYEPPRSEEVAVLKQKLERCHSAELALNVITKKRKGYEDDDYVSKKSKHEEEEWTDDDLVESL
- Sequence (P51948 whole entry, looked up): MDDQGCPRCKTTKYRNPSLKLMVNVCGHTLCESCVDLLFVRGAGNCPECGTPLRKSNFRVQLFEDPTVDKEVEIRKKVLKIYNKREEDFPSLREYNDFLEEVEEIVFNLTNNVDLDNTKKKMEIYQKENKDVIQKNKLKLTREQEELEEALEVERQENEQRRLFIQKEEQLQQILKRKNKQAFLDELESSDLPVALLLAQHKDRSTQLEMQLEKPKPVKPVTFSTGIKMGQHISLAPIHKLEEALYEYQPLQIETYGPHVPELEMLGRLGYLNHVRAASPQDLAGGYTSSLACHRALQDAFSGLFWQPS
- Measurement notes: radiometric filter-binding kinase assay, Kinase HotSpot
- Condition summary: compound 0.5 µM; ATP 10 µM
Listed here: items and their measured residual activity.
Answer with a number only, understood to be in %.

COc1ccc(OC)c2c(=S)c3ccccc3[nH]c12 : 91.7
O=C(O)/C=C/c1cc(Br)c(Br)c(Br)c1Br : 88.6
Nc1nnc2[nH]c3ccccc3nc1-2 : 98
COc1cc2ncc(-c3ccccc3)nc2cc1OC : 109
CCN(CC)CCCCN1c2ccccc2Oc2ccc(Cl)cc21 : 99

From here, focus on the item given below.
For record O=C1Nc2ccccc2/C1=C1/Nc2ccccc2/C1=N\OCCC(O)CO (centres undefined) the listed residual activity is 77.9

====

- Study target: CDK5 CDK5R1 p25 (human) (UniProt Q00535+Q15078)
- Sequence (Q00535 whole entry, looked up): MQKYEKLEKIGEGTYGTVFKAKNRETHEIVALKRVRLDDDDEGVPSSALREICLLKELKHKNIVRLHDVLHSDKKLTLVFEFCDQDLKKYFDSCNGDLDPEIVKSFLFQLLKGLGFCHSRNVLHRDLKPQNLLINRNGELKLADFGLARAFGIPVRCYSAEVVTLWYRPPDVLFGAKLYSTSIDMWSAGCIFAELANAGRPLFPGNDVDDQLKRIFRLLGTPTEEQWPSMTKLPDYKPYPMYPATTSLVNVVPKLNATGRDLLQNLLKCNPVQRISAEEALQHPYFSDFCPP
- Sequence (Q15078 whole entry, looked up): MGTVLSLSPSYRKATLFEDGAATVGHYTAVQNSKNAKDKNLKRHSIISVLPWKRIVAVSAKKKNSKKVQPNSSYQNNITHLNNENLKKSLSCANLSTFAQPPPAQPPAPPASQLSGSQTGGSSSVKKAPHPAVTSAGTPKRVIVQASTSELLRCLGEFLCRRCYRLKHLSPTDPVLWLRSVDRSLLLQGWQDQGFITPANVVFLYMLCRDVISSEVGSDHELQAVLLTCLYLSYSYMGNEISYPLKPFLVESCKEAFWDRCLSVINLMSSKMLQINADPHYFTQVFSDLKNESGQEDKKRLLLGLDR
- Measurement notes: radiometric filter-binding kinase assay, Kinase HotSpot
- Condition summary: compound 0.5 µM; ATP 10 µM
Assay endpoint: residual activity
Report as: number unit

O=C1Nc2ccccc2/C1=C1/Nc2ccccc2/C1=N\OCCC(O)CO (stereo not drawn) : 16.4%
CC(C)c1nn(-c2c(Cl)cccc2Cl)c2nc(Cc3ccc(OCCO)cc3)nc(O)c12 : 2.54%

For record `O=C1Cc2c([nH]c3ccc(Br)cc23)-c2ccccc2N1` the listed residual activity is 64.8%

====

- Study target: NLK (human) (UniProt Q9UBE8)
- Sequence (Q9UBE8 whole entry, looked up): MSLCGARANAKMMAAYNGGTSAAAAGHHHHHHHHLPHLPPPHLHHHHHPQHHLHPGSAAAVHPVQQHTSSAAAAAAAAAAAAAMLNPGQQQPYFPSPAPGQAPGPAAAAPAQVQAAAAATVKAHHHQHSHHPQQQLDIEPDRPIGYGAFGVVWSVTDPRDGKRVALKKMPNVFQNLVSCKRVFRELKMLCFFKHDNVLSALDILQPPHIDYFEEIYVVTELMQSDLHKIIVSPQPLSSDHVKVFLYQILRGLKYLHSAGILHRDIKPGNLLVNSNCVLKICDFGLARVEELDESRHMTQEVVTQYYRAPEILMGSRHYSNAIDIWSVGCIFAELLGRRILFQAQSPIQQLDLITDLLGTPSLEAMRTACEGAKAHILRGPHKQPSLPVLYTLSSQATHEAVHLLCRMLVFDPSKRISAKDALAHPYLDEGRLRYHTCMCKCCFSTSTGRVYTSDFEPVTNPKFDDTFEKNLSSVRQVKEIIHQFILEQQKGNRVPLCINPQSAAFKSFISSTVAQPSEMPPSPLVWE
- Measurement notes: radiometric filter-binding kinase assay, Kinase HotSpot
- Condition summary: compound 0.5 µM; ATP 10 µM
Listed here: items and their measured residual activity.
Answer with a number only, understood to be in %.

Some solved entries appear below for comparison.
O=C1NC(=O)C(c2c[nH]c3ccccc23)=C1c1c[nH]c2ccccc12 : 103
O=C(Nc1cccc(Nc2cc(Nc3cccc(C(F)(F)F)c3)ncn2)c1)C1CC1 : 95.9
O=C1NC(=O)C(c2cn(CCCO)c3ncccc23)=C1c1cnccn1 : 91.2
CN([C@@H](Cc1ccc(OS(=O)(=O)c2cccc3cnccc23)cc1)C(=O)N1CCN(c2ccccc2)CC1)S(=O)(=O)c1cccc2cnccc12 : 106

From here, focus on the item given below.
For record `COc1cc2ncnc(N3CCN(C(=O)Nc4ccc(Oc5ccccc5)cc4)CC3)c2cc1OC` the listed residual activity is 99.9

====

- Study target: CSNK2A1 (human) (UniProt P68400)
- Sequence (P68400 whole entry, looked up): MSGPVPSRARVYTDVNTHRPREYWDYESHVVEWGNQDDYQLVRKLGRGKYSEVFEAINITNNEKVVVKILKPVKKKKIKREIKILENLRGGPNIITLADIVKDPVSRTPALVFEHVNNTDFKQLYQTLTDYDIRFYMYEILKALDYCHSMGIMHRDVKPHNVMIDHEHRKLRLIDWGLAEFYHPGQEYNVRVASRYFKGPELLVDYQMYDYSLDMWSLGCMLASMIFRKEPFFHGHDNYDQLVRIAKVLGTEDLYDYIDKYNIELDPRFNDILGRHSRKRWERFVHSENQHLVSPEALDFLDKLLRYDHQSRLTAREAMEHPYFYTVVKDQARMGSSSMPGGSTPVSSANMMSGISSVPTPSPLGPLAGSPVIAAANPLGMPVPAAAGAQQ
- Measurement notes: radiometric filter-binding kinase assay, Kinase HotSpot
- Condition summary: compound 0.5 µM; ATP 10 µM
Listed here: items and their measured residual activity.
Answer with a number only, understood to be in %.

COc1ccc(OC)c2c(=S)c3ccccc3[nH]c12 : 100
COc1ccc(CNC(=O)Nc2ncc([N+](=O)[O-])s2)cc1 : 94.2

For record `O=C1Nc2ccccc2/C1=C1\Nc2ccccc2\C1=N/O` the listed residual activity is 78.2

====

- Study target: MAP3K7 TAB1 (human) (UniProt O43318+Q15750)
- Sequence (O43318 whole entry, looked up): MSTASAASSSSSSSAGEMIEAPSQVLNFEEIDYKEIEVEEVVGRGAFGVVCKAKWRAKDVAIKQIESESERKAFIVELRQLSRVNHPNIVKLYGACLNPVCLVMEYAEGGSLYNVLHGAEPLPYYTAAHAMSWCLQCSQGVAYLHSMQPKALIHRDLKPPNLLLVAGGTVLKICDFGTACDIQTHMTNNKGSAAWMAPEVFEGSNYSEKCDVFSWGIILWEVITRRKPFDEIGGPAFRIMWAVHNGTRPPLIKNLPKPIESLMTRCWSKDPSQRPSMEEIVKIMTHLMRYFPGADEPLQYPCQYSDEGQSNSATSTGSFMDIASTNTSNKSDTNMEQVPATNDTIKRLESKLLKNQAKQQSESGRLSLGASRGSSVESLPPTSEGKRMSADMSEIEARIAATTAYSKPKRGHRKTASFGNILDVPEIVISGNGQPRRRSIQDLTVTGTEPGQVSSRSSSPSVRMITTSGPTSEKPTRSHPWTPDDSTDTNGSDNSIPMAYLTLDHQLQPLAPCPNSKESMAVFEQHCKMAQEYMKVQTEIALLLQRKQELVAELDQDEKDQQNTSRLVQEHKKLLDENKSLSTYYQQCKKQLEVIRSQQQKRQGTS
- Sequence (Q15750 whole entry, looked up): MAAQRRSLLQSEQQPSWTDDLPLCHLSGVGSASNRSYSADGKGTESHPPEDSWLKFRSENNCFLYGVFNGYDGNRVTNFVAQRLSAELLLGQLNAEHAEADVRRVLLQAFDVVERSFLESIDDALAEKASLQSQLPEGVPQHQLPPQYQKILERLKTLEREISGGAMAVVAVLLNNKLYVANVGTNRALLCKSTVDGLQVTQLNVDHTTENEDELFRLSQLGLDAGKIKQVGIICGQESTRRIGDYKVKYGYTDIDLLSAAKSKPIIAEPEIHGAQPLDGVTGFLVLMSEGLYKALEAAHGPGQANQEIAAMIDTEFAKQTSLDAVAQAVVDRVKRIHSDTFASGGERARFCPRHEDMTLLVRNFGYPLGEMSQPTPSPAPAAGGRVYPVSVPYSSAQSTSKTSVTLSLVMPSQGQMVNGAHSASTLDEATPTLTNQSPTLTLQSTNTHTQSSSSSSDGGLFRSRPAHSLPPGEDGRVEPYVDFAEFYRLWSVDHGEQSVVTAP
- Measurement notes: radiometric filter-binding kinase assay, Kinase HotSpot
- Condition summary: compound 0.5 µM; ATP 10 µM
Assay endpoint: residual activity (%)
Answer with a number only, understood to be in %.

O=C1Nc2ccccc2/C1=C1/Nc2ccccc2/C1=N\OCCC(O)CO (stereo not given) : 50.5
O=C(Nc1cccc(Nc2cc(Nc3cccc(C(F)(F)F)c3)ncn2)c1)C1CC1 : 99.3

The compound `c1cc(-c2cnn3cc(-c4ccc(OCCN5CCCCC5)cc4)cnc23)ccn1` , tested on MAP3K7 TAB1 (human) (UniProt O43318+Q15750), showed residual activity of 49.7

The compound `CC(C)[C@H](CO)Nc1nc(Nc2cc(N)cc(Cl)c2)c2ncn(C(C)C)c2n1` , tested on MAP3K7 TAB1 (human) (UniProt O43318+Q15750), showed residual activity of 51.3

The compound `COc1ccc(CNC(=O)Nc2ncc([N+](=O)[O-])s2)cc1` , tested on MAP3K7 TAB1 (human) (UniProt O43318+Q15750), showed residual activity of 99.3

The compound `Oc1ccc(Nc2nc(-c3ccc(Cl)cc3)cs2)cc1` , tested on MAP3K7 TAB1 (human) (UniProt O43318+Q15750), showed residual activity of 95.3

The compound `O=C1Cc2c([nH]c3ccc(Br)cc23)-c2ccccc2N1` , tested on MAP3K7 TAB1 (human) (UniProt O43318+Q15750), showed residual activity of 84.2

The compound `Cc1nc2cc3nc(-c4cccs4)cnc3cc2n1C` , tested on MAP3K7 TAB1 (human) (UniProt O43318+Q15750), showed residual activity of 92.5

====

Listed here: items and their measured residual activity.
- Study target: IKBKB (human)
- Measurement notes: radiometric filter-binding kinase assay, Kinase HotSpot
- Condition summary: compound 0.5 µM; ATP 10 µM
Answer with a number only, understood to be in %.

Some solved entries appear below for comparison.
O=C1NC(=O)/C(=C\c2ccc3nccnc3c2)S1 : 96.1
O=C1NC(=O)C(c2cn(CCCO)c3ncccc23)=C1c1cnccn1 : 87.3
Cn1cnc2cc3c(Nc4cccc(Br)c4)ncnc3cc21 : 104
O=C1Nc2ccccc2/C1=C1\Nc2ccccc2\C1=N/O : 96.1
CN(C)C[C@H]1CCn2c(c(C3=C(c4cn(C)c5ccccc45)C(=O)NC3=O)c3ccccc32)C1 : 105

The compound `Cn1sc(=O)n(Cc2ccccc2)c1=O` , tested on IKBKB (human), showed residual activity of 112

The compound `Oc1ccc(Nc2nc(-c3ccc(Cl)cc3)cs2)cc1` , tested on IKBKB (human), showed residual activity of 104

The compound `Nc1nnc2[nH]c3ccccc3nc1-2` , tested on IKBKB (human), showed residual activity of 102

====

Listed here: items and their measured residual activity.
- Study target: FGFR4 (human) (UniProt P22455)
- Sequence (P22455 whole entry, looked up): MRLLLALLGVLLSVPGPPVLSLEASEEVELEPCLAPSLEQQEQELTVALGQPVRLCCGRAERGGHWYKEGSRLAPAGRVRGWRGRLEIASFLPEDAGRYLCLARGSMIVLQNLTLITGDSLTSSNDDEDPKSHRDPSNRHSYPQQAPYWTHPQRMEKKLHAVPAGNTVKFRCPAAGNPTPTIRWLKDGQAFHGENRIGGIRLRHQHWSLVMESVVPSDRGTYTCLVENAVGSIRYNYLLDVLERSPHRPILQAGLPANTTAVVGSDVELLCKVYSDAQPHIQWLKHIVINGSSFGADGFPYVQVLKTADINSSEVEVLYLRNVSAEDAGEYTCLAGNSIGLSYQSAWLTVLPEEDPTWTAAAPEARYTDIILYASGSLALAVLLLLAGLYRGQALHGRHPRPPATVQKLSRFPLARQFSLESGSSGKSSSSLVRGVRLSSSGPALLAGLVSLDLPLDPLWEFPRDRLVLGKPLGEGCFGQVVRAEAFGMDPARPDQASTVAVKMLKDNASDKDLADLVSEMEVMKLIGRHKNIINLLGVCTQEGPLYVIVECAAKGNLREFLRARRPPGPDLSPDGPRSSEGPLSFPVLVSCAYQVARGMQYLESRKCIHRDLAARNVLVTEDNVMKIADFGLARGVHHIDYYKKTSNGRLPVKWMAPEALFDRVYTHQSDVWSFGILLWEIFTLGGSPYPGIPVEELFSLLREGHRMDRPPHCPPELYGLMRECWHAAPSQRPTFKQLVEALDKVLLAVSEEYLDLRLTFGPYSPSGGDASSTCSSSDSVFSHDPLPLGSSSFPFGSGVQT
- Measurement notes: radiometric filter-binding kinase assay, Kinase HotSpot
- Condition summary: compound 0.5 µM; ATP 10 µM
Answer with a number only, understood to be in %.

O=C1NC(=O)C(c2c[nH]c3ccccc23)=C1c1c[nH]c2ccccc12 : 87.8
CCn1cnc2c(Nc3cccc(Cl)c3)nc(N[C@@H]3CCCC[C@@H]3N)nc21 : 97.5
Oc1ccc(Nc2nc(-c3ccc(Cl)cc3)cs2)cc1 : 71.6
CN([C@@H](Cc1ccc(OS(=O)(=O)c2cccc3cnccc23)cc1)C(=O)N1CCN(c2ccccc2)CC1)S(=O)(=O)c1cccc2cnccc12 : 110
CN(C)C[C@H]1CCn2c(c(C3=C(c4cn(C)c5ccccc45)C(=O)NC3=O)c3ccccc32)C1 : 89.6

For record O=C1Nc2ccccc2/C1=C1/Nc2ccccc2/C1=N\OCCC(O)CO (stereo not drawn) the listed residual activity is 65.7

For record `CCN(CC)CCCCN1c2ccccc2Oc2ccc(Cl)cc21` the listed residual activity is 92.6

For record `COc1cc2ncc(-c3ccccc3)nc2cc1OC` the listed residual activity is 78.7

For record `O=C1Nc2ccccc2/C1=C1\Nc2ccccc2\C1=N/O` the listed residual activity is 91.9

For record `Cn1cnc2cc3c(Nc4cccc(Br)c4)ncnc3cc21` the listed residual activity is 94.1

For record `Cc1nc2cc3nc(-c4cccs4)cnc3cc2n1C` the listed residual activity is 96.3

For record `Nc1nnc2[nH]c3ccccc3nc1-2` the listed residual activity is 94.9

For record `Cn1nc2c3c(cccc31)C(=O)c1ccccc1-2` the listed residual activity is 108

For record `CC(C)c1nn(-c2c(Cl)cccc2Cl)c2nc(Cc3ccc(OCCO)cc3)nc(O)c12` the listed residual activity is 91.5

For record `Cn1sc(=O)n(Cc2ccccc2)c1=O` the listed residual activity is 97.2

For record `O=C(Nc1cccc(Nc2cc(Nc3cccc(C(F)(F)F)c3)ncn2)c1)C1CC1` the listed residual activity is 102

For record `O=C(CCCc1ccc(-c2ccccc2F)cc1)Nc1ccc(O)cc1` the listed residual activity is 106

For record `CC(C)[C@H](CO)Nc1nc(Nc2cc(N)cc(Cl)c2)c2ncn(C(C)C)c2n1` the listed residual activity is 93.4

Provenance of the data: the kinase profiling compilation of Christmann-Franck et al. (2016)
